- assay.target: Peroxisome proliferator-activated receptor gamma/Nuclear receptor coactivator 1 (Homo sapiens, UniProt P37231)
- Sequence (P37231 whole entry): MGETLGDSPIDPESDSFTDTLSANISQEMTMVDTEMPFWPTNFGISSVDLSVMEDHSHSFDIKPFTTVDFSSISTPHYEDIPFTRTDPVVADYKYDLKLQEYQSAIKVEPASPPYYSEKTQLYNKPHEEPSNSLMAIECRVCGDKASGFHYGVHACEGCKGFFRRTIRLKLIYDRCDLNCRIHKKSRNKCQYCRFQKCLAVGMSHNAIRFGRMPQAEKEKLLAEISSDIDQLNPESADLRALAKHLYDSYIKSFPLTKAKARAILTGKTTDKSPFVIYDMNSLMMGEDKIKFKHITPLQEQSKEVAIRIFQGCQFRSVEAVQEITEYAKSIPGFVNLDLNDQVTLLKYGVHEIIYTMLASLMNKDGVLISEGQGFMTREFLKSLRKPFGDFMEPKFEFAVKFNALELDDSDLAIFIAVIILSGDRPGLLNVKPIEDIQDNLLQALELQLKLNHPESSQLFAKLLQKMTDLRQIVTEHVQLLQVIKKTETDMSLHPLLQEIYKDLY
- Sequence (Q15788 whole entry, further chain): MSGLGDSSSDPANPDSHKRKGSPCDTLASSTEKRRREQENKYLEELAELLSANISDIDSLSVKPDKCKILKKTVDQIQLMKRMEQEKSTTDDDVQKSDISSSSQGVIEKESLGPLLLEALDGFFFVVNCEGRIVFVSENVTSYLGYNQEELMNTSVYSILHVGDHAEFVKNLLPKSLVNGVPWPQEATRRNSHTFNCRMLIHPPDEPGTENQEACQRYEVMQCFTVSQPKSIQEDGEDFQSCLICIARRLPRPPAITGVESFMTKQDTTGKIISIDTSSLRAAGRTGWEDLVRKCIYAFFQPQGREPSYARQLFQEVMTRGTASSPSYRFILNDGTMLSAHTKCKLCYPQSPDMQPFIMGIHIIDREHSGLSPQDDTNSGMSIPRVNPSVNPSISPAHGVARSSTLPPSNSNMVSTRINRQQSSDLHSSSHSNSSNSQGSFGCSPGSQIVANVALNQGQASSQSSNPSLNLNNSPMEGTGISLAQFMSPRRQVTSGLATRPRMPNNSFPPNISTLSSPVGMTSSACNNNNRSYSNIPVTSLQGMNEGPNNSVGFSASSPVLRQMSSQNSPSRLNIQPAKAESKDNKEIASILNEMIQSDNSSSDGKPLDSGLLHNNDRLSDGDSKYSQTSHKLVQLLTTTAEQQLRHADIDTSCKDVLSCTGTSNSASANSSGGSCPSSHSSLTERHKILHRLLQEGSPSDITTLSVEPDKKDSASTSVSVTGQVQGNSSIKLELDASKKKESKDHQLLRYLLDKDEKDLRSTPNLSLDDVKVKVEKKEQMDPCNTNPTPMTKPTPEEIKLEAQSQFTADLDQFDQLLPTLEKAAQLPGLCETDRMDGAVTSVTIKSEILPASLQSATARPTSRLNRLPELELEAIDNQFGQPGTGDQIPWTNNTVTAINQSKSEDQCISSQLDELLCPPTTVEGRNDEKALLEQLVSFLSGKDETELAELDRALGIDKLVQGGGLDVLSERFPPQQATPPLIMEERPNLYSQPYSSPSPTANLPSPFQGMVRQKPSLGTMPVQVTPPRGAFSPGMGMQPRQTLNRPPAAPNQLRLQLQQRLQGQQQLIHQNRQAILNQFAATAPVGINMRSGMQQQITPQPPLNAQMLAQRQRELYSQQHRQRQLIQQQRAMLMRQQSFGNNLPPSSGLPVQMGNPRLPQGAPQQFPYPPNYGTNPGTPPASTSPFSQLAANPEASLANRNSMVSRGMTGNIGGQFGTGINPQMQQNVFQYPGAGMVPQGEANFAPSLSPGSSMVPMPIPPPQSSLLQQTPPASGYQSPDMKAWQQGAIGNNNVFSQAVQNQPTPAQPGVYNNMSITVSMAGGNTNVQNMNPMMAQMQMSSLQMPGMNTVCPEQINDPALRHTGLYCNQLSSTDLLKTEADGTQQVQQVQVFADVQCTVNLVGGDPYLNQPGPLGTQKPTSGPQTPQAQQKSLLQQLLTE
- test.protocol: TR-FRET dose response biochemical High Throughput Screening assay for agonists of the steroid receptor coactivator 1 (SRC-1) recruitment by the peroxisome proliferator-activated receptor gamma (PPAR gamma): non-selective agonists. [Related pubchem assays (depositor defined):AID1300, AID1808, AID504735, AID631]
- Type: protein assay
Activity calls are given as the source filed them.
value.kind: EC50

INSERT INTO measurements (molecule, value_kind, measured) VALUES
  ('COc1cc(-c2nc3ccccc3s2)ccc1O', 'EC50', '11.7 µM (inactive)'),
  ('CCn1c(=O)cc(SCC(=O)N2CCN(c3ccccn3)CC2)c2ccccc21', 'EC50', '> 79.4 µM (inactive)'),
  ('O=C1NN(c2ccccc2)C(=O)/C1=C/c1ccc(Sc2cccc3ccccc23)o1', 'EC50', '> 79.4 µM (inactive)'),
  ('CCc1cc2cc(C(=O)Nc3ccc(F)cc3)sc2s1', 'EC50', '> 79.4 µM (inactive)'),
  ('C=CCOc1ccc(C2C(C(=O)c3ccco3)=C(O)C(=O)N2c2nnc(C)s2)cc1 (stereo not given)', 'EC50', '> 79.4 µM (inactive)');

* * *

- assay.target: Fatty acid synthase (Homo sapiens, UniProt P49327)
- Sequence (P49327 whole entry, the tested form may be a part): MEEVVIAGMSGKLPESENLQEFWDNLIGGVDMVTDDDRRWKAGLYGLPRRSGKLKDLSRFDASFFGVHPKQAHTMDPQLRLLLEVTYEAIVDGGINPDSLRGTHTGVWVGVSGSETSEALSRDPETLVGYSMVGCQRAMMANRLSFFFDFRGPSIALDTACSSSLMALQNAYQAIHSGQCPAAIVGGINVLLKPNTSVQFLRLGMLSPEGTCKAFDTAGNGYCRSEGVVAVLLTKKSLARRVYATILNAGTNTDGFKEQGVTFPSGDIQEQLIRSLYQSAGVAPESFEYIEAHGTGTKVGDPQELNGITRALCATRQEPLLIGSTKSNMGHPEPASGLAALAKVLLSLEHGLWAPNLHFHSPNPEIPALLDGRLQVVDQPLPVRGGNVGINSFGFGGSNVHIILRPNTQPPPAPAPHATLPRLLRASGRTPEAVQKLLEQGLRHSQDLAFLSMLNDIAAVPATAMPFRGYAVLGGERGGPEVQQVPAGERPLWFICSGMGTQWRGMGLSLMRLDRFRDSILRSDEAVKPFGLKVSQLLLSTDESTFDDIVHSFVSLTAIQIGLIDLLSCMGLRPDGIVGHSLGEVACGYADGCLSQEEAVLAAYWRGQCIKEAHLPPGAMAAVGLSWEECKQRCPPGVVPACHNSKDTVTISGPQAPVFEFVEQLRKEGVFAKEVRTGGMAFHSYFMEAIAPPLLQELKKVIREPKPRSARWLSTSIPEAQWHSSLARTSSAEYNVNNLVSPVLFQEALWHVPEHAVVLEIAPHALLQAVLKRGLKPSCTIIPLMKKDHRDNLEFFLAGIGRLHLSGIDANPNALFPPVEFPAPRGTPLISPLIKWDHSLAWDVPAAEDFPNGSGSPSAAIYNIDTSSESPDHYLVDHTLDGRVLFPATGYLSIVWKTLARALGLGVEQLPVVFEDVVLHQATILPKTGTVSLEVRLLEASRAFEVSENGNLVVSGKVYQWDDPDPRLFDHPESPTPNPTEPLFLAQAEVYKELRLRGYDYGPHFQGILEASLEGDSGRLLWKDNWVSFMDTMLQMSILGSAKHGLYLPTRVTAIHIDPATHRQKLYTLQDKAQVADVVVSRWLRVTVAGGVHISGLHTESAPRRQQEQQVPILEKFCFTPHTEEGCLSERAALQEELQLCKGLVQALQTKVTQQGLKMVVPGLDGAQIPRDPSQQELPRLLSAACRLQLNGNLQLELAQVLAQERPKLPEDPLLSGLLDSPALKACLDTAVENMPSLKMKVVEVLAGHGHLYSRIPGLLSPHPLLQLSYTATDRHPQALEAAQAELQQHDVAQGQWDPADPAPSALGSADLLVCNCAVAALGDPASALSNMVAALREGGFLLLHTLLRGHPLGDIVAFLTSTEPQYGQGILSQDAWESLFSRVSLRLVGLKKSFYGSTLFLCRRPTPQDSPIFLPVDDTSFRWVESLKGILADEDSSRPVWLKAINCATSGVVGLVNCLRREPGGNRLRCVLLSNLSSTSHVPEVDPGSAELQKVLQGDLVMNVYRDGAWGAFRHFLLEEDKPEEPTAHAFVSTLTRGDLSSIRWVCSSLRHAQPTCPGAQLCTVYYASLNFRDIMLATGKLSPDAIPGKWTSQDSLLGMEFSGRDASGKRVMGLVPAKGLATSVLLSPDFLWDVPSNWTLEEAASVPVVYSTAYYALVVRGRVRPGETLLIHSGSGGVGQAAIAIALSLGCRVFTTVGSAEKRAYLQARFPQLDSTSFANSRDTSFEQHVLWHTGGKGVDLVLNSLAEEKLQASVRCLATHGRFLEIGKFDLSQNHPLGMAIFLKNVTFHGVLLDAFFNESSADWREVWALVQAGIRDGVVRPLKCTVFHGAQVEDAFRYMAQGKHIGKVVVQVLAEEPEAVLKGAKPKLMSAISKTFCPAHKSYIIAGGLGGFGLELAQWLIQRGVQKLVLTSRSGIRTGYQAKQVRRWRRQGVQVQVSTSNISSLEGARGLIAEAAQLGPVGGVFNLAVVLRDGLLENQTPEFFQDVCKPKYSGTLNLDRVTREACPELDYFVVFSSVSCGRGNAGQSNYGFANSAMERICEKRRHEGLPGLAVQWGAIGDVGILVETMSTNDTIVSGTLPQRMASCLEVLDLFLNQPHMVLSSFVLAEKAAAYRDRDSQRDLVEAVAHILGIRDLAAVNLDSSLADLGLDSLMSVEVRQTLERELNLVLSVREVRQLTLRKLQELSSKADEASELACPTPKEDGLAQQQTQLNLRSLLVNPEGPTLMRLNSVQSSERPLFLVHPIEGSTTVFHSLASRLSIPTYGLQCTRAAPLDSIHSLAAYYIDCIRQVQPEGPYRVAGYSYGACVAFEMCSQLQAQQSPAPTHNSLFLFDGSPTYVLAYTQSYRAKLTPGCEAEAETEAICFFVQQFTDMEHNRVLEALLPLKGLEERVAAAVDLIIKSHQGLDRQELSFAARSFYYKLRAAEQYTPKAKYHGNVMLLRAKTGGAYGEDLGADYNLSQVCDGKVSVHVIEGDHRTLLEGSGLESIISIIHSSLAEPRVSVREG
- test.protocol: FAS thioesterase domain inhibitors, dose response, biochemical, kinetic fluorescence intensity (AID 624326);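 also: rate of fluorescence rise from hydrolysis of a fluorogenic O-methyl fluorescein ester substrate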
- Format: functional
Activity calls are given as the source filed them.
Outcomes: 1 = active, 0 = inactive

INSERT INTO measurements (entry_smiles, category) VALUES
  ('CC(C)OC(=O)[C@H]1[C@H](c2ccc(Cl)cc2)[C@@](C#N)(C(N)=O)[C@@H]2C=CC(C(N)=O)=CN21', 1),
  ('CCc1nc2c(OCc3ccc(Cl)cc3)cccn2c1N(C=O)Cc1ccc(OC)cc1', 1),
  ('COc1ccc2nc(NC(=O)c3ccc([N+](=O)[O-])o3)sc2c1', 1),
  ('Cc1cc(C)c(S(=O)(=O)ON2C(=O)c3ccccc3C2=O)cc1C', 1),
  ('O=C(C[C@H]1C[C@H](C(=O)N2CCOCC2)[C@@]2(CCC3CCCC3)c3[nH]c4cc(-c5ccco5)ccc4c3CCN2C1=O)NCCN1CCOCC1', 1),
  ('COc1ccc(CN(Cc2cc3cccc(C)c3n3nnnc23)C(=O)N2CCOCC2)cc1', 0);

* * *

Below, each entry is listed alongside its reported EC50.
- assay.target: Trace amine-associated receptor 1 (Homo sapiens, UniProt Q96RJ0)
- Sequence (Q96RJ0 whole entry): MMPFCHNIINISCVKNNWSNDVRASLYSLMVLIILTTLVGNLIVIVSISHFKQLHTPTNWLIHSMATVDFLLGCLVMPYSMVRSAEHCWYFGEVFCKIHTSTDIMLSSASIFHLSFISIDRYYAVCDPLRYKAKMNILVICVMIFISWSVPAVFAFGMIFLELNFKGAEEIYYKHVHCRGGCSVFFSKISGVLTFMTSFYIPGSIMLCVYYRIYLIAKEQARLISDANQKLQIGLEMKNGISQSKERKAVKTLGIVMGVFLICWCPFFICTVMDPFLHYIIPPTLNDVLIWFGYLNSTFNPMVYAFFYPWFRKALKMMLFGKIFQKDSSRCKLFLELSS
- test.protocol: Fluorescence-based cell-based high throughput dose response assay to identify agonists of the human trace amine associated receptor 1 (TAAR1).
- Format: functional
Calls of active or inactive are those of the source.
value.kind: EC50

INSERT INTO assay_data (compound, assay_target, measured) VALUES
  ('COc1ccc(OC(=O)NCCc2ccccc2)cc1', 'Trace amine-associated receptor 1 (Homo sapiens, UniProt Q96RJ0)', '0.535 µM (active)'),
  ('Cn1c(=O)c2[nH]c(Nc3ccccc3)nc2n(C)c1=O', 'Trace amine-associated receptor 1 (Homo sapiens, UniProt Q96RJ0)', '5.67 µM (active)'),
  ('O=C(/C=C/C(=O)N1CCc2ccccc2C1)N1CCc2ccccc2C1', 'Trace amine-associated receptor 1 (Homo sapiens, UniProt Q96RJ0)', '1.14 µM (active)'),
  ('COc1ccccc1CCNC(=O)C(=O)NCC1OCCN1S(=O)(=O)c1ccc(C)cc1 (centres undefined)', 'Trace amine-associated receptor 1 (Homo sapiens, UniProt Q96RJ0)', '2.51 µM (active)');

* * *

Overview of reported EC50 across a group of compounds:
- test.protocol: growth suppression of beta-catenin-knockout colon cells, dose response, cell-based, HCT116, human colon tumor (AID 1045);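 also: HCT116 colon tumor cells with beta catenin knocked out; cells exposed to compound for 60 hours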
- Type: functional
Calls of active or inactive are those of the source.
value.kind: EC50

INSERT INTO measurements (entry_smiles, value_kind, measured) VALUES
  ('C/C(N)=C(/C#N)C(=O)COC(=O)c1cc(-c2ccc(Br)cc2)nc2ccccc12', 'EC50', '24.9 µM (active)'),
  ('Cc1ccc(S(=O)(=O)Nc2cccc3cccnc23)cc1', 'EC50', '2.5 µM (active)'),
  ('Oc1[nH]c2ccccc2c1N=NC(S)=NCCc1ccccc1', 'EC50', '23 µM (active)'),
  ('CCOc1cc(CNCCO)cc(Br)c1OCc1ccc(Cl)cc1Cl', 'EC50', '4.69 µM (active)');

* * *

Below: a set of entries, each annotated with reported IC50.
- assay.target: UniProt:P49327
- test.protocol: FAS thioesterase domain inhibitors, dose response, biochemical, endpoint fluorescence intensity, uHTS hits (AID 624327);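 also: fluorescence from hydrolysis of an O-methyl fluorescein acyl ester substrate by the enzyme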
- Type: functional
Calls of active or inactive are those of the source.
value.kind: IC50

INSERT INTO measurements (entry_smiles, measured) VALUES
  ('O=C(C[C@H]1C[C@H](C(=O)N2CCOCC2)[C@@]2(CCC3CCCC3)c3[nH]c4cc(-c5ccco5)ccc4c3CCN2C1=O)NCCN1CCOCC1', '6.62 µM (active)'),
  ('CCc1nc2c(OCc3ccc(Cl)cc3)cccn2c1N(C=O)Cc1ccc(OC)cc1', '8.01 µM (active)'),
  ('Cc1cc(C)c(S(=O)(=O)ON2C(=O)c3ccccc3C2=O)cc1C', '0.744 µM (active)'),
  ('COc1ccc(CN(Cc2cc3cccc(C)c3n3nnnc23)C(=O)N2CCOCC2)cc1', '18.8 µM (active)'),
  ('CC(C)OC(=O)[C@H]1[C@H](c2ccc(Cl)cc2)[C@@](C#N)(C(N)=O)[C@@H]2C=CC(C(N)=O)=CN21', '10.9 µM (active)'),
  ('COc1ccc2nc(NC(=O)c3ccc([N+](=O)[O-])o3)sc2c1', '14.5 µM (active)');

* * *

- assay.target: Genome polyprotein (dengue virus type 2, UniProt P29990)
- test.protocol: Dengue-2 NS5 methyltransferase inhibitors, primary screen, biochemical, confirmation dose response (AID 588689)
- Assay type: functional
Activity calls are given as the source filed them.
value.kind: IC50

INSERT INTO measurements (compound, value_kind, measured) VALUES
  ('O=C(O)CSc1cc(C(=O)c2ccccc2O)cn2c(=O)c3c4c(sc3nc12)CCCC4', 'IC50', '94.1 µM (active)'),
  ('N#Cc1c(N)sc(=S)c2c1CCCCC2', 'IC50', '> 100 µM (active)'),
  ('Cc1[nH]n(-c2ccccc2)c(=O)c1C(c1cccc([N+](=O)[O-])c1)c1c(C)[nH]n(-c2ccccc2)c1=O', 'IC50', '52.9 µM (active)'),
  ('Cc1cc(C)c(S(=O)(=O)ON2C(=O)c3ccccc3C2=O)cc1C', 'IC50', '76.2 µM (active)'),
  ('CCCCCCSc1nc(O)c(C2OC(=O)c3c2ccc(OC)c3OC)c(=O)n1-c1ccccc1 (configuration not stated)', 'IC50', '30.2 µM (active)'),
  ('O=C1C(=C(I)I)c2ccccc2-c2ccccc21', 'IC50', '29 µM (active)'),
  ('COc1ccc(S(=O)(=O)CC(=O)c2cc3cccc(C)c3oc2=O)cc1', 'IC50', '78.1 µM (active)');

* * *

- assay.target: Microphthalmia-associated transcription factor (Homo sapiens)
- Sequence (O75030 whole entry): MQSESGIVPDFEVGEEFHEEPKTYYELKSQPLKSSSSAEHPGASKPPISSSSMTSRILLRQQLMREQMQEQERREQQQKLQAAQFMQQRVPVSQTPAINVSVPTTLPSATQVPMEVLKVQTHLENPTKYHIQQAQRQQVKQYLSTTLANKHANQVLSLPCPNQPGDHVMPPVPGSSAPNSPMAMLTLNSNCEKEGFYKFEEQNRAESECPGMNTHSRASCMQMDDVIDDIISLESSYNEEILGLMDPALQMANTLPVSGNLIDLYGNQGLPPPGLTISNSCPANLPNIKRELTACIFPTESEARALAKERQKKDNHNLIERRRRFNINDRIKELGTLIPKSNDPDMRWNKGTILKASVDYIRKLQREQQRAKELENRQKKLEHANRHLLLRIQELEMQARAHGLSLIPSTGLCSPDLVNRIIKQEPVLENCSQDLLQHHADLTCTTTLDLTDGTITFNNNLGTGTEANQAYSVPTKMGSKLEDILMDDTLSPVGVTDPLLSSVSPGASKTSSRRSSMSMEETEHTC
- test.protocol: TRPM1 promoter luciferase signal decrease, dose response, MITF inhibitor project, cell-based, SK-MEL-5, cherry-picked, set 3 (AID 493073);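 also: SK-MEL-5 melanoma cells with luciferase driven by the MITF target TRPM1 promoter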
- Type: functional
The source made the active and inactive calls.
value.kind: AC50

INSERT INTO assay_data (compound, measured) VALUES
  ('CCOc1ccc(/C=C2\SC(=S)N(CCC(=O)O)C2=O)cc1', '0.577 µM (active)'),
  ('O=C1c2cc([N+](=O)[O-])cc3cc([N+](=O)[O-])cc(c23)C(=O)N1c1ccccn1', '7.92 µM (active)'),
  ('CCOC(=O)c1c(NC(C)=O)sc2c(OCC(O)CNC(C)(C)C)c(Br)ccc12 (stereo not given)', '7.72 µM (active)'),
  ('Cc1ccc(S(=O)(=O)Nc2cccc3cccnc23)cc1', '5.55 µM (active)'),
  ('CCN1CCN(CCCNC(=O)c2ccc3c(c2)NC(=O)/C(=C\c2cccc(C)c2)S3)CC1', '9.93 µM (active)');

src = ChEMBL document CHEMBL1201862
